- system-tested: T1, CD81 (UniProt P60033 1-236, limits assumed)
- T1 construct: whole, on cells; also called CD81 receptor
- T1 sequence (looked up): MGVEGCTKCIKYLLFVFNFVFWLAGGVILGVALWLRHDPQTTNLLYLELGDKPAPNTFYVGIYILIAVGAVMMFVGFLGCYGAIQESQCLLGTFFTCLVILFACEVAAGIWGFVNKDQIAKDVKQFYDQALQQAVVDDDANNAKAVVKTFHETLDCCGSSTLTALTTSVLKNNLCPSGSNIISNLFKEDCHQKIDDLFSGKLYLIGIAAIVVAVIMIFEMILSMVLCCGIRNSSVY
- assay-comment: cell ELISA;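 further: antibody binding to HuH7 cells expressing CD81 versus a CD81-negative HuH7 control line, bound antibody detected by secondary reagent, absorbance at 450 nm with 620 nm reference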
Decision: ELISA data beneath 0.2 gives MET; ELISA data meeting or exceeding 0.2 gives NOT MET.

Lab note: confirm whether the reported ELISA data for this binder is below 0.2, equality not counting. binder: CD81K04 HC JA_GG-14-hVH_1_3 / LC JA_GG-08-hVK_4_1 (antibody, V domains shown, human constant region) VH: QVQLVQSGAEVKKPGASVKVSCKASGYTFSSSWMNWVRQAPGQGLEWMGRIYSGDGDAIYNGKFKGRATITADTSASTAYMELSSLRSEDTAVYYCAREGKTGDLLLRSWGQGTLVTVSS VL: DIVMTQSPDSLAVSLGERATINCKSSKSVSTSIYSYMHWYQQKPGQPPKLLIKYASYLESGVPDRFSGSGSGTDFTLTISSLQAEDVAVYYCEHSREFPFTFGQGTKLEIK
NOT MET

Lab note: confirm whether the reported ELISA data for this binder is below 0.2, equality not counting. binder: CD81K04 HC GG-01-hVH_5_51 / LC JA_GG-07-hVK_7_3 (antibody, V domains shown, human constant region) VH: EVQLVQSGAEVKKPGESLKISCKGSGYSFSSSWMNWVRQMPGKGLEWMGRIYSGDGDAIYSPSFQGQVTISADKSISTAYLQLSSLKASDTAMYYCAREGKTGDLLLRSWGQGTLVTVSS VL: DIVLTQSPASLAVSPGQRATITCRASKSVSTSIYSYMHWYQQKPGQPPKLLIKYASNKDTGVPARFSGSGSGTDFTLTINPVEANDAANYYCLHSREFPYTFGQGTKLEIK
MET

Lab note: confirm whether the reported ELISA data for this binder is below 0.2, equality not counting. binder: CD81K04 HC GG-01-hVH_5_51 / LC GG-04-hVK_4_1 (antibody, V domains shown, human constant region) VH: EVQLVQSGAEVKKPGESLKISCKGSGYSFSSSWMNWVRQMPGKGLEWMGRIYSGDGDAIYSPSFQGQVTISADKSISTAYLQLSSLKASDTAMYYCAREGKTGDLLLRSWGQGTLVTVSS VL: DIVMTQSPDSLAVSLGERATINCKSSKSVSTSIYSYLAWYQQKPGQPPKLLIYYASTRESGVPDRFSGSGSGTDFTLTISSLQAEDVAVYYCQHSREFPYTFGQGTKLEIK
MET

Lab note: confirm whether the reported ELISA data for this binder is below 0.2, equality not counting. binder: CD81K04 HC GG-03-hVH_1_69 / LC GG-06-hVK_1_39 (antibody, V domains shown, human constant region) VH: QVQLVQSGAEVKKPGSSVKVSCKASGYTFSSSWMNWVRQAPGQGLEWMGRIYSGDGDAIYAQKFQGRVTITADESTSTAYMELSSLRSEDTAVYYCAREGKTGDLLLRSWGQGTLVTVSS VL: DIQMTQSPSSLSASVGDRVTITCRASKSVSTSIYSYLNWYQQKPGKAPKLLIYYASYLQSGVPSRFSGSGSGTDFTLTISSLQPEDFATYYCQHSREFPYTFGQGTKLEIK
MET

Lab note: confirm whether the reported ELISA data for this binder is below 0.2, equality not counting. binder: CD81K04 HC GG-05-hVH_1_18 / LC GG-02-hVK_4_1 (antibody, V domains shown, human constant region) VH: QVQLVQSGAEVKKPGASVKVSCKASGYTFSSSWMNWVRQAPGQGLEWMGRIYSGDGDAIYAQKLQGRVTMTTDTSTSTAYMELRSLRSDDTAVYYCAREGKTGDLLLRSWGQGTLVTVSS VL: DIVMTQSPDSLAVSLGERATINCKSSKSVSTSIYSYMHWYQQKPGQPPKLLIYYASYRESGVPDRFSGSGSGTDFTLTISSLQAEDVAVYYCQHSREFPFTFGQGTKLEIK
NOT MET

Lab note: confirm whether the reported ELISA data for this binder is below 0.2, equality not counting. binder: CD81K04 HC GG-02-hVH_1_69 / LC JA_GG-09-hVK_4_1 (antibody, V domains shown, human constant region) VH: QVQLVQSGAEVKKPGSSVKVSCKASGYTFSSSWMNWVRQAPGQGLEWMGRIYSGDGDAIYNQKFQGRVTITADESTSTAYMELSSLRSEDTAVYYCAREGKTGDLLLRSWGQGTLVTVSS VL: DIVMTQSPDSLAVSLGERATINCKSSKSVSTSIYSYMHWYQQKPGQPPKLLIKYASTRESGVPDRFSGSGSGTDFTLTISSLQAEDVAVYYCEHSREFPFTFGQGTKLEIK
NOT MET

Lab note: confirm whether the reported ELISA data for this binder is below 0.2, equality not counting. binder: CD81K04 HC GG-03-hVH_1_69 / LC GG-03-hVK_4_1 (antibody, V domains shown, human constant region) VH: QVQLVQSGAEVKKPGSSVKVSCKASGYTFSSSWMNWVRQAPGQGLEWMGRIYSGDGDAIYAQKFQGRVTITADESTSTAYMELSSLRSEDTAVYYCAREGKTGDLLLRSWGQGTLVTVSS VL: DIVMTQSPDSLAVSLGERATINCKSSKSVSTSIYSYLAWYQQKPGQPPKLLIYYASYRESGVPDRFSGSGSGTDFTLTISSLQAEDVAVYYCQHSREFPFTFGQGTKLEIK
MET

Lab note: confirm whether the reported ELISA data for this binder is below 0.2, equality not counting. binder: CD81K04 HC GG-01-hVH_5_51 / LC CD81K04 (antibody, V domains shown, human constant region) VH: EVQLVQSGAEVKKPGESLKISCKGSGYSFSSSWMNWVRQMPGKGLEWMGRIYSGDGDAIYSPSFQGQVTISADKSISTAYLQLSSLKASDTAMYYCAREGKTGDLLLRSWGQGTLVTVSS VL: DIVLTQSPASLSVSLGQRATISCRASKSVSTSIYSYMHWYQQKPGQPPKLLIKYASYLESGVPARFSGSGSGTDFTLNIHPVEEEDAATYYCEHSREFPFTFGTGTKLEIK
MET

Lab note: confirm whether the reported ELISA data for this binder is below 0.2, equality not counting. binder: CD81K04 HC GG-02-hVH_1_69 / LC GG-03-hVK_4_1 (antibody, V domains shown, human constant region) VH: QVQLVQSGAEVKKPGSSVKVSCKASGYTFSSSWMNWVRQAPGQGLEWMGRIYSGDGDAIYNQKFQGRVTITADESTSTAYMELSSLRSEDTAVYYCAREGKTGDLLLRSWGQGTLVTVSS VL: DIVMTQSPDSLAVSLGERATINCKSSKSVSTSIYSYLAWYQQKPGQPPKLLIYYASYRESGVPDRFSGSGSGTDFTLTISSLQAEDVAVYYCQHSREFPFTFGQGTKLEIK
MET

Lab note: confirm whether the reported ELISA data for this binder is below 0.2, equality not counting. binder: CD81K04 HC JA_GG-15-hVH_1_3 / LC GG-03-hVK_4_1 (antibody, V domains shown, human constant region) VH: QVQLVQSGAEVKKPGASVKVSCKASGYTFSSSWMNWVRQAPGQRLEWMGRIYSGDGDAIYNGKFKGRVTITADTSASTAYMELSSLRSEDTAVYYCAREGKTGDLLLRSWGQGTLVTVSS VL: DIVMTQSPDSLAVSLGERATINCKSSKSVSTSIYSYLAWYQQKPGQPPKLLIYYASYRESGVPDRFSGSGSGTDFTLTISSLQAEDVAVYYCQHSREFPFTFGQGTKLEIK
NOT MET
